assay: Inhibition of acetylcholinesterase in rat brain homogenate after 15 mins by Ellman assay
label 1 if IC50 is below 20 µM. label 0 if not; exact matches included in label 0.

> print(dat)
                                   compound    group
1  C[N+](C)(CC#CCOC1=NOCC1)CCCCCCCC[N+](C)(C)CCCN1C(=O)c2cccc3cccc(c23)C1=O  label 1
2  C[N+](C)(CC#CCOC1=NOCC1)CCCCCC[N+](C)(C)CCCN1C(=O)c2cccc3cccc(c23)C1=O  label 1
3  C[N+](C)(CC#CCOC1=NOCC1)CCCCCC[N+]1(C)CCC(N2C(=O)c3cccc4cccc(c34)C2=O)CC1 (stereo unspecified)  label 0
4  C[N+](C)(CC#CCOC1=NOCC1)CCCCCCC[N+](C)(C)CCCN1C(=O)c2ccccc2C1=O  label 0

Then this compound:
Query: Decide: IC50 of CC(C)(CN1C(=O)c2cccc3cccc(c23)C1=O)C[N+](C)(C)CCCCCC[N+](C)(C)CCCN1C(=O)c2ccccc2C1=O [Naphmethonium] strictly below 20 µM?
Result: label 0

Cited source for all entries: BindingDB's records for doi:10.1016/j.ejmech.2014.01.032
